meta.source: patent US20250099420A1

# System: parental HEK cells
# Protocol: HEK parental Agonist Counterscreen Assay (non-transfected cells)
# Assay type: cell-based
# Applied conditions: HEK Agonist Activity; activity relative to known control
Exercise: state measured Averaged Max % Response (±St. Dev.) for each of the compounds provided.
Give bare numbers, in %.

Recorded results for 4 compounds are shown here.
CN1CCC(Oc2cc(-c3cn[nH]c3)ccc2NC(=O)C2COc3ccc(F)cc3C2)C1 (centres unmarked) = 5.16
COc1ccccc1NC(=O)NNC(=O)CSc1cc(C)c(Br)cc1C = 13.43
CC(NC(=O)CN1C(=O)c2cccc([N+](=O)[O-])c2C1=O)c1ccc(Cl)cc1Cl (centres unmarked) = 30.27
CC(C)C1CC(=O)[C@@H]2C[C@@H](CC2C(=O)CC2CCOc3ccccc3C2)C2C=CC(=C2)CCC(=O)[C@@H](Cc2ccccc2)NC1=O (some centres unmarked) = −2.44

Each compound below has a reported value. Please supply its Averaged Max % Response (±St. Dev.).
1. COc1cccc(C(=O)NNC(=O)COc2ccc(C)cc2Br)c1
2. COc1ccccc1CC1(C)NC(=O)N(CC(=O)NC(C)c2cccc(Cl)c2)C1=O (centres unmarked)
3. Cc1ccc(C)c(C(=O)CCC(=O)NNC(=O)CSc2nc3ccccc3o2)c1
4. O=C(CC(c1ccccc1)c1ccccc1)Oc1coc(CSc2ncccn2)cc1=O

### Response
1. 7.35
2. −3.54
3. 12.21
4. 4.84
